Test target: Aldo-keto reductase family 1 member B10 (Homo sapiens)
Sequence (O60218 whole entry): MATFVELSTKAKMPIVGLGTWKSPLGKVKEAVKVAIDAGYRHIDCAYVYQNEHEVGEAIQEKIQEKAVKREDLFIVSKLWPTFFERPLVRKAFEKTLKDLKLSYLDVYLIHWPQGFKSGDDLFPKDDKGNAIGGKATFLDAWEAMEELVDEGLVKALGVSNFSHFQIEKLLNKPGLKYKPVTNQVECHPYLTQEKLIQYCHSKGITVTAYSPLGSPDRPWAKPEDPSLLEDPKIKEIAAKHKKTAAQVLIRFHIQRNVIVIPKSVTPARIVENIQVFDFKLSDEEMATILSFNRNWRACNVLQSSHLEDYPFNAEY

>  <Smiles data>
O=C(O)Cn1c2ccccc2c2nnc(S)nc21

>  <Test target>
Aldo-keto reductase family 1 member B10 (Homo sapiens)

>  <IC50 [µM]>
21.4

$$$$

----------
A collection of compounds and their measured inhibition
Experiment: Inhibition of Wistar rat kidney aldehyde reductase using D-glucuronate as substrate at 100 uM by spectrophotometry
Measured parameter: inhibition (%)

>  <Smiles data>
O=C(O)CCn1ccc2ccccc21

>  <Measured parameter>
inhibition

>  <Recorded measurement>
11.8

$$$$
>  <Smiles data>
CCN(CC)Cc1cn(CC(=O)O)c2ccccc12

>  <Measured parameter>
inhibition

>  <Recorded measurement>
38

$$$$
>  <Smiles data>
O=C(O)Cn1c2ccccc2c2cn[nH]c(=O)c21

>  <Measured parameter>
inhibition

>  <Recorded measurement>
49

$$$$
>  <Smiles data>
CCN(CC)Cc1cn(CCC(=O)O)c2ccccc12

>  <Measured parameter>
inhibition

>  <Recorded measurement>
6.65

$$$$
>  <Smiles data>
Cc1c(CN(C)C)c2ccccc2n1CC(=O)O

>  <Measured parameter>
inhibition

>  <Recorded measurement>
22.3

$$$$
>  <Smiles data>
O=C(O)Cn1cc(N2CCCC2)c2ccccc21

>  <Measured parameter>
inhibition

>  <Recorded measurement>
19.2

$$$$
>  <Smiles data>
O=C(O)Cn1cc(N2CCOCC2)c2ccccc21

>  <Measured parameter>
inhibition

>  <Recorded measurement>
32.5

$$$$
